Data provenance is patent US8785460B2.

Listed next: entries and their corresponding melting point.

Worked set:
[[record]]
compound = "CCC(CC)c1ccc(Cl)c2nc3n(c12)CCCCN3c1ccc(S(C)(=O)=O)cc1C [Example 46]"
observed_result = "170 to 171 °C"

[[record]]
compound = "CCC(OC(=O)C1CC1)c1ccc(Cl)c2nc3n(c12)CCCN3c1ccc(OC)nc1C (stereo not drawn) [Example 268]"
observed_result = "149 to 151 °C"


// below: melting point requested for another compound
Asked: Answer with the recorded melting point for the compound listed here: COc1ccc(N2CCCn3c2nc2c(Cl)ccc(C(OC)C(F)(F)F)c23)c(C)n1 (stereo not drawn) [Example 280]
Given back: 144 to 146 °C
